B1: CAMK2D (parent)
chain: LLKHPNIVRLHDSISEEGFHYLVF

variants of: B1; experiment: protein stability index of a GFP-peptide fusion (GPS, HEK-293T) (PSI 1-6); higher = more stable; settings: c terminus: a fixed tail appended;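 also: lentivirally expressed fusions sorted by FACS into six bins by GFP to DsRed ratio, PSI derived from sequencing read proportions per bin multiplied by bin number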
This listing pairs variants with measured protein stability index.
The answer should be written as a number, with no unit following it.

G18E 1.63
S15L 2.19
V23T 3.35

Determine its reported protein stability index: "Y21G"
2.37

Quickly give me recorded protein stability index for "Y21I"
1.79

Dear colleague, please send me the reported protein stability index for "H4I" when you can.
2.28

Provide one value: measured protein stability index of "Y21M"
2.58
